MIC by entry:
System: Candida krusei ATCC 6258
EXPERIMENT_SUMMARY: ≥ marks a high value that may be exact or a test limit, other limits are often not marked, values filed in µg/mL are converted to µM

Example entries begin here.
CC[C@H](C)[C@H](NC(=O)[C@@H](NC(=O)CN)C(C)C)C(=O)N[C@@H](CCCCN)C(=O)N[C@@H](C)C(=O)N[C@@H](C)C(=O)N[C@@H](CCCCN)C(=O)N[C@@H](CCCCN)C(=O)N[C@H](C(=O)N[C@H](C(=O)N[C@@H](CC(N)=O)C(=O)N[C@H](C(=O)N[C@@H](CC(C)C)C(=O)N[C@@H](CCCCN)C(=O)N[C@@H](CC(N)=O)C(=O)N[C@@H](CC(C)C)C(=O)N[C@@H](Cc1ccccc1)C(N)=O)C(C)C)C(C)C)C(C)C [GVIKAAKKVVNVLKNLF]	≥ 34.8 µM
CC[C@H](C)[C@H](NC(C)=O)C(=O)N[C@@H](Cc1ccccc1)C(=O)NCC(=O)N[C@@H](C)C(=O)N[C@H](C(=O)N[C@@H](Cc1c[nH]c2ccccc12)C(=O)N1CCC[C@H]1C(=O)N[C@@H](CC(C)C)C(=O)N[C@@H](C)C(=O)N[C@@H](CC(C)C)C(=O)NCC(=O)N[C@@H](C)C(=O)N[C@@H](CC(C)C)C(=O)N[C@@H](CCCCN)C(=O)N[C@@H](CC(N)=O)C(=O)N[C@@H](CC(C)C)C(=O)N[C@H](C(=O)N[C@@H](CCCCN)C(N)=O)[C@@H](C)CC)[C@@H](C)CC [IFGAIWPLALGALKNLIK]	≥ 125 µM

# ---- query molecule ----
Lab note: CC[C@H](C)[C@H](NC(=O)[C@H](CC(C)C)NC(=O)CNC(=O)[C@H](CCCCN)NC(=O)[C@@H](NC(=O)[C@H](CC(C)C)NC(=O)[C@H](CCCCN)NC(=O)[C@@H]1CCCN1C(=O)[C@@H](NC(=O)[C@H](CC(C)C)NC(=O)[C@H](CCCCN)NC(=O)[C@H](Cc1ccccc1)NC(=O)[C@@H](N)Cc1ccccc1)[C@@H](C)CC)C(C)C)C(=O)N[C@@H](CO)C(=O)N[C@@H](C)C(=O)N[C@@H](Cc1ccccc1)C(=O)N[C@@H](CCCCN)C(N)=O [FFKLIPKLVKGLISAFK] gave MIC of 9.38 µM
